Test system: MCF7 cancer cell line
assay name: MTT cytotoxicity assay, breast cancer MCF7
Assay type: cell-based
condition summary: Homo sapiens, mean ± SD of three experiments
experimental readout: IC50 (µM)
State the answer as a number, implicitly in µM.

Answered examples (2):
{"molecule": "COc1ccc(-c2nn(-c3ccccc3)c3nccc(-c4ccc(OC)c(OC)c4)c23)cc1 [Compound 9h]", "reading unit": "µM", "data value": 9.7}
{"molecule": "COc1ccc(-c2nn(-c3ccccc3)c3nc(-c4ccccc4)c(C#N)c(-c4ccccc4)c23)cc1 [Compound 14a]", "reading unit": "µM", "data value": 20.7}

The reported value for COc1ccc(-c2nn(-c3ccccc3)c3nccc(-c4ccc([N+](=O)[O-])cc4)c23)cc1 [Compound 9g] in terms of IC50 is 26.3

The reported IC50 of the molecule COc1ccc(-c2nn(-c3ccccc3)c3nccc(-c4ccc(C)cc4)c23)cc1 [Compound 9b] was 22.4

###

melting point values, listed per item

For orientation, consider the following solved cases.
{"molecule": "COc1ccc(-c2nn(-c3ccccc3)c3nc(-c4ccccc4)c(C#N)c(-c4ccc(Br)cc4)c23)cc1 [Compound 14e]", "data value": "221 to 223 °C"}
{"molecule": "COc1ccc(-c2nn(-c3ccccc3)c3nccc(-c4ccc(C)cc4)c23)cc1", "data value": "186 to 188 °C"}
{"molecule": "COc1ccc(-c2nn(-c3ccccc3)c3nccc(-c4ccc([N+](=O)[O-])cc4)c23)cc1", "data value": "> 300 °C"}

Notebook: `COc1ccc(-c2ccnc3c2c(-c2ccc(OC)cc2)nn3-c2ccccc2)cc1` , melting point read as 198 to 200 °C

###

Tested on: HCT-116 cancer cell line
assay name: MTT cytotoxicity assay, colon HCT-116
Format: cell-based
condition summary: Homo sapiens, mean ± SD of three experiments, read-out: IC50 HCT116
Below, each entry is listed alongside its reported IC50.

Sample records with IC50:
{"compound": "COc1ccc(-c2nn(-c3ccccc3)c3nc(-c4ccccc4)c(C#N)c(-c4ccccc4)c23)cc1 [Compound 14a]", "experimental readout": "IC50", "data value": "25.8 µM"}
{"compound": "COc1ccc(-c2nn(-c3ccccc3)c3nccc(-c4ccc(Cl)cc4)c23)cc1", "experimental readout": "IC50", "data value": "16.6 µM"}
{"compound": "COc1ccc(-c2nn(-c3ccccc3)c3nccc(-c4ccc(OC)c(OC)c4)c23)cc1", "experimental readout": "IC50", "data value": "9.69 µM"}
{"compound": "COc1cccc2c1C(=O)c1c(O)c3c(c(O)c1C2=O)C[C@@](O)(C(=O)CO)C[C@@H]3O[C@H]1C[C@H](N)[C@H](O)[C@H](C)O1 [Doxorubicin, reference compound]", "experimental readout": "IC50", "data value": "2.11 µM"}
{"compound": "COc1ccc(-c2nn(-c3ccccc3)c3nc(-c4ccccc4)c(C#N)c(-c4ccc(OC)cc4)c23)cc1 [Compound 14c]", "experimental readout": "IC50", "data value": "36.7 µM"}

According to the records, this compound `COc1ccc(-c2nn(-c3ccccc3)c3nccc(-c4ccc(C)cc4)c23)cc1` displays IC50 of 18 µM

Short answer for COc1ccc(-c2nn(-c3ccccc3)c3nc(-c4ccccc4)c(C#N)c(-c4ccc(O)cc4)c23)cc1 [Compound 14g] : IC50 was 1.98 µM

Memo: `COc1ccc(-c2ccnc3c2c(-c2ccc(OC)cc2)nn3-c2ccccc2)cc1` , reported IC50: 43.2 µM

Quick note, IC50 for COc1ccc(-c2nn(-c3ccccc3)c3nc(-c4ccccc4)c(C#N)c(-c4ccc(Br)cc4)c23)cc1 [Compound 14e] landed at 37.8 µM

The reported IC50 of the compound `COc1ccc(-c2nn(-c3ccccc3)c3nccc(-c4ccc(Br)cc4)c23)cc1` was 16.8 µM
